- System: Tov-21-G
- protocol: Primary qHTS to identify gynecologic anti-cancer compounds using libraries of approved drugs and bioactive compounds (AID 1345084); also: nearly all actives have a fitted effect of over 55% in size
- applied-conditions: Gynecologic cancer cell panel viability, ATPlite luminescence, 48 h; series mostly up to 57.5 µM
Records with an inconclusive call do not appear. Active and inactive are the calls of the source. Calls follow the shape of the dose curve; as a rule, active = well fitted cell-killing curve with a large enough effect; inconclusive = small, poorly fitted or top-dose-only effect, or effect the other way; inactive = flat fitted curve, though single readings scatter.
Classes to choose from: yes for active, no for inactive

For C[C@H]1O[C@@H](O[C@H]2CC[C@]3(C=O)C4CC[C@]5(C)[C@@H](C6=CC(=O)OC6)CC[C@]5(O)[C@@H]4CC[C@]3(O)C2)C[C@@H](O)[C@@H]1O (stereo partly specified) , what call appears in the results of this test? yes

For CO[C@@H]1[C@@H](O)[C@@H](O[C@H]2CC[C@]3(C=O)C4CC[C@]5(C)[C@@H](C6=CC(=O)OC6)CC[C@]5(O)[C@@H]4CC[C@H]3C2)O[C@@H](C)[C@H]1O[C@@H]1O[C@H](CO[C@@H]2O[C@H](CO)[C@@H](O)[C@H](O)[C@H]2O)[C@@H](O)[C@H](O)[C@H]1O (stereo partly specified) , what call appears in the results of this test? yes

For Cc1ccc(-n2nccn2)c(C(=O)N2CCN(c3nc4cc(Cl)ccc4o3)CCC2C)c1 (stereo unspecified) , what call appears in the results of this test? no

For `C=C(C)[C@@]12O[C@@H]1[C@@]1(C)C(=C[C@H]2O)CC[C@@H](O)[C@@H]1C` , what call appears in the results of this test? no

For COc1ccc2c3c([nH]c2c1)C(C=C(C)C)N1C(=O)C2CCCN2C(=O)C1C3 (stereo unspecified) , what call appears in the results of this test? no

For CCN1C[C@]2(COC)CC[C@H](O)[C@@]34C5C[C@@H]6[C@@H](OC)C[C@@](OC(C)=O)(C5[C@@H]6OC(C)=O)[C@H]([C@H](OC)C23)[C@@H]14 (stereo partly specified) , what call appears in the results of this test? no

###

- protocol: qHTS for Inhibitors of the Functional Ribonucleoprotein Complex (vRNP) of Lymphocytic Choriomeningitis Arenaviruses (LCMV): Viability assay - alamar blue signal for LCMV Primary Screen (AID 1347085); also: nearly all actives have a fitted effect of over 80% in size
- applied-conditions: alamar blue viability counter-screen, LCMV vRNP screen cells; series mostly up to 57.5 µM
Records with an inconclusive call do not appear. Calls of active or inactive are those of the source. Calls follow the shape of the full dose curve; tested in HEK293 reporter line.
Classes to choose from: active, inactive

For `CCC(=O)OCCc1ccccc1` , what call appears in the results of this test? inactive

For S=C(S)OC1CC2CC1C1CCCC21 (stereo not drawn) , what call appears in the results of this test? inactive

For Cc1noc(-c2ccc(CSCCC(=O)O)cc2)c1NC(=O)OC(C)c1ccccc1Cl (stereo not drawn) , what call appears in the results of this test? inactive

For `c1ccc(CN(Cc2ccccc2)Cc2ccccc2)cc1` , what call appears in the results of this test? inactive

For `Cn1ncc(S(=O)(=O)Cc2ccccc2)c(Br)c1=O` , what call appears in the results of this test? inactive

For COc1ccc(C2OCC3(O)C(c4ccc(OC)c(OC)c4)OCC23)cc1OC (stereo not drawn) , what call appears in the results of this test? inactive

For `Nc1nc(OCc2ccccc2)c2[nH]cnc2n1` , what call appears in the results of this test? active

For `C=CCNC1=C2C[C@@H](C)C[C@H](OC)[C@@H](O)[C@@H](C)C=C(C)[C@H](OC(N)=O)[C@@H](OC)C=CC=C(C)C(=O)NC(=CC1=O)C2=O` , what call appears in the results of this test? active

For `Cn1c(-c2ccccc2)cc(=O)c2ccccc21` , what call appears in the results of this test? inactive

For CCC1CCC(=O)O1 (stereo not drawn) , what call appears in the results of this test? inactive

For `CCS(=O)(=O)c1cccc(-c2cc(C(=O)NC3CCN(C)CC3)c(C)c3[nH]c4ncc(C)cc4c23)c1` , what call appears in the results of this test? active

For `Cn1c(=O)c(-c2ccccc2)c(O)c2ccccc21` , what call appears in the results of this test? inactive

For `Cc1ccc([N+](=O)[O-])cc1S(=O)(=O)N(C)C` , what call appears in the results of this test? inactive

For O=CC(O)C1OC(=O)C(O)C1O (stereo not drawn) , what call appears in the results of this test? inactive

For `O=C(Nc1cc2cc[nH]c2cn1)c1ccccc1` , what call appears in the results of this test? inactive

For `CCCCC[C@H]1CCCCC[C@@H](O)C[C@H](O)[C@H](O)/C=C/C(=O)O1` , what call appears in the results of this test? inactive

For `O=C(O)[C@H](O)[C@@H](O)C(=O)O` , what call appears in the results of this test? inactive

For `OC[C@H]1O[C@@H](Oc2ccc(O)cc2)[C@H](O)[C@@H](O)[C@H]1O` , what call appears in the results of this test? inactive

For Cc1ccccc1C(C(=O)NC1CCCCC1)N(C(=O)Cn1ccnc1C)c1cccc(F)c1 (stereo not drawn) , what call appears in the results of this test? inactive

For C=CCN1CCc2c(cc(O)c(O)c2Cl)C(c2ccccc2)C1 (stereo not drawn) , what call appears in the results of this test? inactive

For CC1=CC2OC3CC4OC(=O)C=CC=CC(=O)OCCC(C)C(O)C(=O)OCC2(CC1O)C4(C)C31CO1 (stereo not drawn) , what call appears in the results of this test? inactive

For `O=C(Nc1cccc(C(=O)Nc2ccc(S(=O)(=O)O)c3cc(S(=O)(=O)O)cc(S(=O)(=O)O)c23)c1)Nc1cccc(C(=O)Nc2ccc(S(=O)(=O)O)c3cc(S(=O)(=O)O)cc(S(=O)(=O)O)c23)c1` , what call appears in the results of this test? inactive

For `CCCCCCCCCCC(C)(C)C(=O)Nc1c(OC)cc(OC)cc1OC` , what call appears in the results of this test? inactive

For `Nc1nc2c(ncn2[C@@H]2O[C@H](COP(=O)(O)OP(=O)(O)O)[C@@H](O)[C@H]2O)c(=O)[nH]1` , what call appears in the results of this test? inactive

For `COc1ccc([C@@]23Oc4cc(OC)cc(OC)c4[C@]2(O)[C@H](O)[C@H](C(=O)N(C)C)[C@H]3c2ccccc2)cc1` , what call appears in the results of this test? inactive

For `O=C1/C(=C\c2ccc(O)c(O)c2)Oc2c1ccc(O[C@@H]1O[C@H](CO)[C@@H](O)[C@H](O)[C@H]1O)c2O` , what call appears in the results of this test? inactive

For `COc1c2ccc(OCC/C(C)=C/C(=O)C=C(C)C)cc2nc2occc12` , what call appears in the results of this test? inactive

For `CCCCN` , what call appears in the results of this test? inactive

For `COc1ccc(-c2ccc(N)[n+](CCCC(=O)O)n2)cc1` , what call appears in the results of this test? inactive

For C=C(C)C(O)Cc1c(OC)ccc(C(=O)/C=C/c2ccc(O)cc2)c1O (stereo not drawn) , what call appears in the results of this test? inactive

For `COc1cc2c(cc1OC)OC(C)(C)C=C2` , what call appears in the results of this test? inactive

For Nc1ncnc2c1c(-c1cccc(OCc3ccccc3)c1)cn2C1CC(CN2CCCC2)C1 (stereo not drawn) , what call appears in the results of this test? active

For N#CC(c1ccc(O)cc1)N1CCCCC1 (stereo not drawn) , what call appears in the results of this test? inactive

For `CCCCCCC[C@@H](C/C=C/CCC(=O)N(C)C/C(=C/Cl)C/C(=C\C(=O)N1C[C@H](O)CC1=O)OC)OC` , what call appears in the results of this test? inactive

For `CC[C@H](CC#N)OC(=O)N[C@@H](C)c1cccc(NC(=O)Nc2ccc(-c3cnco3)c(OC)c2)c1` , what call appears in the results of this test? active

For `Cc1ccc(S(=O)(=O)Nc2nc3ccccc3nc2Nc2ccc3nsnc3c2)cc1` , what call appears in the results of this test? active

For `CCCCCCCCCCCCc1ccc(S(=O)(=O)Nc2nncs2)cc1` , what call appears in the results of this test? inactive

For `O=C(O)c1ccccc1` , what call appears in the results of this test? inactive

###

- protocol: Cytotoxicity counterscreen for inhibitors of SARS-CoV-2 cell entry (AID 1645845); also: nearly all actives have a fitted effect of over 50% in size
- applied-conditions: cell viability (SARS-CoV-2 entry assay cells); series mostly up to 57.1 µM
Records with an inconclusive call do not appear. Activity calls are given as the source filed them. The call rests on the fitted dose curve.
Classes to choose from: yes (1) = active, no (0) = inactive

For `CCCc1nc(C(C)(C)O)c(C(=O)O)n1Cc1ccc(-c2ccccc2-c2nn[nH]n2)cc1` , what call appears in the results of this test? no (0)

For `N#C/C(=C\c1ccc(O)c(O)c1)C(=O)NCc1ccccc1` , what call appears in the results of this test? no (0)

For `CC(C)(O)CCc1ccc(OCc2cc(-c3cccc(OC(F)F)c3)c3ncccc3c2)cc1` , what call appears in the results of this test? no (0)

For `CN(C)Cc1cccc(N=C(c2ccccc2)c2c(O)[nH]c3cc(C(=O)N(C)C)ccc23)c1` , what call appears in the results of this test? no (0)

For `C[C@@H]1CCO[C@H]2Cn3cc(C(=O)NCc4ccc(F)cc4F)c(=O)c(O)c3C(=O)N12` , what call appears in the results of this test? no (0)

For `C[C@@H]1COC(Nc2ccc3ncnc(Nc4ccc(OCc5nccs5)c(Cl)c4)c3c2)=N1` , what call appears in the results of this test? yes (1)

For `N#Cc1ccc(Oc2ccc3c(c2)COB3O)cc1` , what call appears in the results of this test? no (0)

For `Cc1ccccc1-n1c(Cn2nc(-c3cccc(O)c3)c3c(N)ncnc32)nc2cccc(C)c2c1=O` , what call appears in the results of this test? no (0)

For CC[C@@H]([C@H](C)O)n1ncn(-c2ccc(N3CCN(c4ccc(OCC5CO[C@@](Cn6cncn6)(c6ccc(F)cc6F)C5)cc4)CC3)cc2)c1=O (stereo not given in full) , what call appears in the results of this test? no (0)

For `C[C@]1(c2nc3c(C(N)=O)cccc3[nH]2)CCCN1` , what call appears in the results of this test? no (0)
